System: A375 multi-cell spheroids with HUVEC/MSC, viability
Test: Anticancer human tumor A375 cell line growth inhibition [GQUAD];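 note: spheroids exposed to compounds for seven days before readout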
Conditions: second compound 0.0316 µM; first compound 0.0316 µM; hits give low values
RECORDED_ENDPOINT: viability, T/C (%)
Numeric only. Scale: %

Fill in the blank: the reported viability, T/C of Cc1[nH]c2ccccc2c1CCNCc1ccc(/C=C/C(=O)NO)cc1 + CN(C)c1ccc(Nc2c3ccc(NC(=O)CCN4CCCC4)cc3nc3cc(NC(=O)CCN4CCCC4)ccc23)cc1 is ____. 122

Moving on to the next molecule: Cc1cccc(N(C)C(=O)C2C(O)CCN2c2nc(C)cc(C(F)(F)F)c2C#N)c1 (stereo not given) + CN(C)c1ccc(Nc2c3ccc(NC(=O)CCN4CCCC4)cc3nc3cc(NC(=O)CCN4CCCC4)ccc23)cc1 103

Moving on to the next molecule: COc1ncnc(C2CC2)c1-c1ncc2cnn(Cc3ccc(-c4nc(C(F)(F)F)cn4C(C)C)cc3)c2n1 + Cc1[nH]c2ccc(F)cc2c1-c1nc2c3cccnc3c3ncccc3c2[nH]1 102

Moving on to the next molecule: C=CCn1c(=O)c2cnc(Nc3ccc(N4CCN(C)CC4)cc3)nc2n1-c1cccc(C(C)(C)O)n1 + Cc1cnc(CNC(=O)c2c(=O)c3ccc(N4CCCN(C)CC4)nc3n3c2sc2ccccc23)cn1 93.1

Moving on to the next molecule: Cc1cccc(N(C)C(=O)C2C(O)CCN2c2nc(C)cc(C(F)(F)F)c2C#N)c1 (stereo not given) + Cc1[nH]c2ccc(F)cc2c1-c1nc2c3cccnc3c3ncccc3c2[nH]1 102

Moving on to the next molecule: CC1COCCN1c1cc(-c2ccnn2C)c2ccnc(-c3ccn[nH]3)c2n1 (stereo not given) + CN(C)c1ccc(Nc2c3ccc(NC(=O)CCN4CCCC4)cc3nc3cc(NC(=O)CCN4CCCC4)ccc23)cc1 105

Moving on to the next molecule: O=C(NO)c1cnc(N2CCN(S(=O)(=O)c3ccc4ccccc4c3)CC2)nc1 + CN(C)c1ccc(Nc2c3ccc(NC(=O)CCN4CCCC4)cc3nc3cc(NC(=O)CCN4CCCC4)ccc23)cc1 121

Moving on to the next molecule: CC1COCCN1c1cc(C2(O)CC3CCC(C2)O3)c2cnn(-c3ccn[nH]3)c2n1 (stereo not given) + CN(C)c1ccc(Nc2c3ccc(NC(=O)CCN4CCCC4)cc3nc3cc(NC(=O)CCN4CCCC4)ccc23)cc1 94.4

Moving on to the next molecule: Cc1cccc(N(C)C(=O)C2C(O)CCN2c2nc(C)cc(C(F)(F)F)c2C#N)c1 (stereo not given) + Cc1cnc(CNC(=O)c2c(=O)c3ccc(N4CCCN(C)CC4)nc3n3c2sc2ccccc23)cn1 104

Moving on to the next molecule: O=C(NO)c1cnc(N2CCN(S(=O)(=O)c3ccc4ccccc4c3)CC2)nc1 + Cc1[nH]c2ccc(F)cc2c1-c1nc2c3cccnc3c3ncccc3c2[nH]1 104

Moving on to the next molecule: CC(C)n1c(=O)n(C)c2cnc3cc(F)c(-c4ccc(OCCCN5CCCCC5)nc4)cc3c21 + Cc1cnc(CNC(=O)c2c(=O)c3ccc(N4CCCN(C)CC4)nc3n3c2sc2ccccc23)cn1 108

Moving on to the next molecule: CCc1c2c(nc3ccc(O)cc13)-c1cc3c(c(=O)n1C2)COC(=O)[C@]3(O)CC + Cc1[nH]c2ccc(F)cc2c1-c1nc2c3cccnc3c3ncccc3c2[nH]1 19.7

Moving on to the next molecule: COc1cc(C2c3cc4c(cc3C(OC3OC5COC(C)OC5C(O)C3O)C3COC(=O)C23)OCO4)cc(OC)c1O (stereo not given) + Cc1cnc(CNC(=O)c2c(=O)c3ccc(N4CCCN(C)CC4)nc3n3c2sc2ccccc23)cn1 110

Moving on to the next molecule: O=C(c1cc(Cc2n[nH]c(=O)c3ccccc23)ccc1F)N1CCN(C(=O)C2CC2)CC1 + Cc1[nH]c2ccc(F)cc2c1-c1nc2c3cccnc3c3ncccc3c2[nH]1 100

Moving on to the next molecule: CC(=O)O[C@H]1C(=O)[C@@]2(C)[C@H]([C@H](OC(=O)c3ccccc3)[C@]3(O)C[C@H](OC(=O)[C@H](O)[C@@H](NC(=O)c4ccccc4)c4ccccc4)C(C)=C1C3(C)C)[C@]1(OC(C)=O)CO[C@@H]1C[C@@H]2O + Cc1cnc(CNC(=O)c2c(=O)c3ccc(N4CCCN(C)CC4)nc3n3c2sc2ccccc23)cn1 77.3

Moving on to the next molecule: CC(C)n1c(=O)n(C)c2cnc3cc(F)c(-c4ccc(OCCCN5CCCCC5)nc4)cc3c21 + Cc1[nH]c2ccc(F)cc2c1-c1nc2c3cccnc3c3ncccc3c2[nH]1 92.3

Moving on to the next molecule: CCc1c2c(nc3ccc(O)cc13)-c1cc3c(c(=O)n1C2)COC(=O)[C@]3(O)CC + Cc1cnc(CNC(=O)c2c(=O)c3ccc(N4CCCN(C)CC4)nc3n3c2sc2ccccc23)cn1 13.5

Moving on to the next molecule: CC(=O)O[C@H]1C(=O)[C@@]2(C)[C@H]([C@H](OC(=O)c3ccccc3)[C@]3(O)C[C@H](OC(=O)[C@H](O)[C@@H](NC(=O)c4ccccc4)c4ccccc4)C(C)=C1C3(C)C)[C@]1(OC(C)=O)CO[C@@H]1C[C@@H]2O + Cc1[nH]c2ccc(F)cc2c1-c1nc2c3cccnc3c3ncccc3c2[nH]1 67.1

Moving on to the next molecule: O=C(c1cc(Cc2n[nH]c(=O)c3ccccc23)ccc1F)N1CCN(C(=O)C2CC2)CC1 + CN(C)c1ccc(Nc2c3ccc(NC(=O)CCN4CCCC4)cc3nc3cc(NC(=O)CCN4CCCC4)ccc23)cc1 104

Moving on to the next molecule: CCCS(=O)(=O)Nc1ccc(F)c(C(=O)c2c[nH]c3ncc(-c4ccc(Cl)cc4)cc23)c1F + Cc1[nH]c2ccc(F)cc2c1-c1nc2c3cccnc3c3ncccc3c2[nH]1 47.1

These measurements were taken from PubChem BioAssay AID2060485.
